Target: T1, EsCas13d, nuclease-dead (Eubacterium siraeum, UniProt B0MS50, R295A;H300A;R849A;H854A)
T1 sequence: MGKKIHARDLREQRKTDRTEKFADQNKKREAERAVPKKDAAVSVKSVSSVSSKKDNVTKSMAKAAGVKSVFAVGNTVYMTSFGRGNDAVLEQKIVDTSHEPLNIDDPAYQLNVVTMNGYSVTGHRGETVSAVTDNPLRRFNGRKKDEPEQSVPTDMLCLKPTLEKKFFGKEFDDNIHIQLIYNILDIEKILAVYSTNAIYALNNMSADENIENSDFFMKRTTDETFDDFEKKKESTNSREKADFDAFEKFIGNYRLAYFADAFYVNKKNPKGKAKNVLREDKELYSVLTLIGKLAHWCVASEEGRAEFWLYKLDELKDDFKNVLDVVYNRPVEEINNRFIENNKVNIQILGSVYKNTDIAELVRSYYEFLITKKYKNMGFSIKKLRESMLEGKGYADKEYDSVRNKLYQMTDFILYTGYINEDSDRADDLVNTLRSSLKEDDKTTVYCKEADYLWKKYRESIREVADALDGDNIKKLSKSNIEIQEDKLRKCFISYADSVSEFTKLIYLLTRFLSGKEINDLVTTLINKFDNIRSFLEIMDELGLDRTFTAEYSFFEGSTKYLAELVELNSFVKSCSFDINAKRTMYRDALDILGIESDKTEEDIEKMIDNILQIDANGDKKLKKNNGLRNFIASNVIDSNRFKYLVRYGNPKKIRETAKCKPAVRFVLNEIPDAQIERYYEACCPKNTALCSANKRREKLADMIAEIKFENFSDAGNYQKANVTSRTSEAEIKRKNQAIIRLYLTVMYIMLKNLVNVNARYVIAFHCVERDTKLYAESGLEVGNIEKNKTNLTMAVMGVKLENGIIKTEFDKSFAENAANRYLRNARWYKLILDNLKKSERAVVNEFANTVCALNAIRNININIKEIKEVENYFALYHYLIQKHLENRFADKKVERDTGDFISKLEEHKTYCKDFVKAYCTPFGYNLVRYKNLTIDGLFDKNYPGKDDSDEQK
Experiment: crRNA (strand 1, pre-loaded); Mg2+; 40 mM Tris-HCl pH 7.5, 150 mM NaCl, 6 mM MgCl2, 1 mM DTT, 0.1% Tween-20, 0.2 mg/ml BSA; 25 C; 10 min per concentration, then washed
Conditions: tags: His6-TwinStrep-SUMO cleaved; N-terminal SNAP kept (SNAP-Surface 488); label: 3' end held by stalled T7 RNA polymerase
pKd: −log10 of the molar value.
Reported values of pKd for individual entries

{"columns": ["binder", "pKd"],
 "data": [
  ["target 2 MT 5'PFS GAU 3'PFS AAA (mixed) RNA 1: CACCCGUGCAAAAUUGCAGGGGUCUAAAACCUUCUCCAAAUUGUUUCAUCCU RNA 2: GGGAAUGGAUCCACAUCUACGAAUUCGAUAGGAUGAAACAAUUUGGAGAAGAAAAGAUCGGAAGAGCACACGU", 8.16],
  ["target 1 insG 3' of 6,insU 3' of 5 (mixed) RNA 1: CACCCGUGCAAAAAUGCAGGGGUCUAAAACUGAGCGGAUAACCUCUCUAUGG RNA 2: GGGAAUGGAUCCACAUCUACGAAUUCGUACCAUAGAGAGGUUAUCCGGUCUCACCGAGAUCGGAAGAGCACACGU", 8.25]
]}
